// data source = PubChem BioAssay (NCI)

Test system: NCI-H23 lung
Assay protocol: NCI tumour cell line growth inhibition, 48 h
Property measured: log10 of TGI (log10 of the value in µM)

1. NC(=S)N/N=C(\C(=O)Nc1ccc(Cl)c(Cl)c1)C1=NN(c2ccccc2)C(c2cccc([N+](=O)[O-])c2)CC1=O (stereo not drawn)	1.67
2. O=Cc1cc(O)c(O)c(/C=N/n2c3ccccc3c3ccccc32)c1	1.54
3. CN(C)CCCC(=O)Nc1ccc(Cn2nnc3c2C(=O)c2nnn(Cc4ccc(NC(=O)CCCN(C)C)cc4)c2C3=O)cc1	0.70
4. COC(=O)[C@H](Cc1ccccc1)NC(=O)[C@@H](OC)[C@@H]1Cc2cc3cc(OC4CC(OC5CC(O)C(O)C(C)O5)C(O)C(C)O4)c(C)c(O)c3c(O)c2C(=O)[C@H]1OC1CC(OC2CC(OC3CC(C)(O)C(O)C(C)O3)C(O)C(C)O2)C(O)C(C)O1 (stereo partly drawn)	-1.09
5. C/C(NC(=O)c1ccccc1)=C(/C(=O)c1ccccc1)[C@@H]1OC(C)(C)O[C@@H]1[C@H]1COC(C)(C)O1	1.97
6. O=C1C(CN2CCCC2)CCCC1CN1CCCC1 (stereo not drawn)	0.63
7. Cc1ccc(N(C(=O)CC(=O)N2N=C(c3ccccc3)C(N=Nc3ccc([N+](=O)[O-])cc3)C2=O)C(=O)c2ccc(Cl)cc2)cc1 (stereo not drawn)	1.45
8. COc1cc(/C=C/C(=O)c2cc(OC)c(OC)c(OC)c2)cc(OC)c1OC	1.14
9. C=C1C(=O)O[C@H]2[C@H]1CC/C(COC(=O)C(=O)c1cn(C)c3ccc(OC)cc13)=C\CC[C@@]1(C)O[C@@H]21	1.09
10. O=C(CC(=O)Nc1ccccc1Cl)NNC(Sc1ccccc1)c1cc(N=Nc2ccc(Br)cc2)ccc1O (stereo not drawn)	0.87
11. C1=C[C@]2(CCC13OCCO3)COc1ccccc12	2.00
12. CC(=O)OC1C(O)C(C)OC(OC(=O)C2CCC3C(C2)OC2(CC(OC(=O)/C=C/c4ccccc4)C(C)CO2)C32CO2)C1OC1OC(C)C(O)C(O)C1O (stereo not drawn)	-0.66
13. O=C(O)C(CO)NC(=O)C1C(C(=O)O)C(c2ccccc2[N+](=O)[O-])C=C(c2ccco2)N1c1ccncc1 (stereo not drawn)	1.30
14. COC1=C(OC)C(=O)C(Cc2c(Cl)nc3n2CCS3)=C(C)C1=O	1.68
15. Cc1nc2ccccc2cc1C[N+]12CN3CN(CN(C3)C1)C2	1.53
16. COc1ccc(C(=O)N/N=C/c2ccc(O)cc2O)cc1Nc1ccnc(C(F)(F)F)c1	1.31
